List of IC50 tested on UniProt P49841.

Known IC50 results, listed for orientation:
COMPOUND	IC50
Cc1cccc(OCCCNc2nccc(-c3ccc(C(N)=O)cc3)n2)c1	≤ 10 µM
CCOC(=O)c1cnc(NCCNc2ccc([N+](=O)[O-])cn2)nc1-c1cccc(F)c1	≤ 10 µM
O=[N+]([O-])c1ccc(NCCNc2ncc(-c3ncc[nH]3)c(-c3ccc(C(F)(F)F)cc3)n2)nc1	≤ 1 µM
Cc1noc(-c2cnc(NCCNc3ccc([N+](=O)[O-])cn3)nc2-c2ccc(C#N)cc2)n1	≤ 1 µM
Nc1nc(NCCNc2ccc([N+](=O)[O-])c(-c3ccc(Cl)cc3Cl)n2)ccc1[N+](=O)[O-]	≤ 1 µM
O=[N+]([O-])c1ccc(NCCNc2nccc(-c3ccc(S(=O)(=O)NCc4cccc(Br)c4)cc3)n2)nc1	≤ 10 µM

Kindly review the next compound as well.
Qu. Checklist item: IC50 tested on UniProt P49841, entry "CCOC(=O)c1cnc(NCCNc2ccc([N+](=O)[O-])cn2)nc1Nc1ccc(Cl)cc1Cl" , value?
Ans. ≤ 10 µM

---

List of pIC50 tested on UniProt:P49841.
pIC50: −log10 of the molar value.

Known pIC50 results, listed for orientation:
CCOC(=O)c1cnc(NCCNc2ccc([N+](=O)[O-])cn2)nc1-c1ccc(N(CC)CC)cc1 ≥ 5.00
CCOC(=O)c1cnc(NCCNc2ccc([N+](=O)[O-])cn2)nc1-c1cc(Cl)cc(Cl)c1 ≥ 5.00
N#CCNC(=O)c1cnc(NCCNc2ccc([N+](=O)[O-])cn2)nc1-c1ccc(C#N)cc1 ≥ 6.00

Kindly review the next molecule as well.
Qu. Checklist item: pIC50 tested on UniProt:P49841, entry "O=[N+]([O-])c1ccc(NCCNc2ncc(-n3cccn3)c(-c3ccc(Cl)cc3Cl)n2)nc1" , value?
Ans. ≥ 6.00

---

- ASSAYED_SYSTEM: human GSK3β (Homo sapiens)
- Sequence (P49841 whole entry): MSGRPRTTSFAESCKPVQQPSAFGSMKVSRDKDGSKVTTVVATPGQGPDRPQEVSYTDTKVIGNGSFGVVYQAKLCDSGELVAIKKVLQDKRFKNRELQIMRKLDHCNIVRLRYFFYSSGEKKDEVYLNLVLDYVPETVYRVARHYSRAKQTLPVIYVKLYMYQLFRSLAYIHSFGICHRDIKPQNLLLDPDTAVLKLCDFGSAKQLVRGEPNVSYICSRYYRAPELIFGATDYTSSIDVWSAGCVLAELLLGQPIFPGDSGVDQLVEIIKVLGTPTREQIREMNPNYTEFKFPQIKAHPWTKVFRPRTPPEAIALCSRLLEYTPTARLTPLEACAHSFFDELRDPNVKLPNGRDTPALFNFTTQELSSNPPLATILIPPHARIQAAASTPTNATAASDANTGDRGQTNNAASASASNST
- PROTOCOL_SUMMARY: Screening for GSK3 inhibitory activity using a cell-free assay
- Assay type: biochemical
- CONDITION_SET: read-out: IC50 with respect to GSK3
Catalogue of IC50 readings, one per entry.

MOLECULE	ASSAY_ENDPOINT	REPORTED
N#Cc1ccc(NCCNCc2ncc(-c3ncc[nH]3)c(-c3ccc(Cl)cc3Cl)n2)nc1	IC50	≤ 1 µM

Qu. Value lookup for IC50; key = "COCCNC(=O)c1ccc(-c2ccnc(NCCNc3ccc([N+](=O)[O-])cn3)n2)cc1"
Ans. ≤ 10 µM

Qu. Value lookup for IC50; key = "O=C(NCc1cccc(Br)c1)c1ccc(-c2ccnc(NCCNc3ccc4ccccc4n3)n2)cc1"
Ans. ≤ 10 µM

Qu. Value lookup for IC50; key = "CCOC(=O)c1cnc(NCCNc2ccc([N+](=O)[O-])cn2)nc1NCc1ccccc1Cl"
Ans. ≤ 10 µM

Qu. Value lookup for IC50; key = "N#Cc1ccc(-c2nc(NCCNc3ccc([N+](=O)[O-])cn3)ncc2C(=O)OCCN2CCOCC2)cc1"
Ans. ≤ 1 µM

Qu. Value lookup for IC50; key = "O=C(NCc1cccc(Br)c1)c1ccc(-c2ccnc(NCCNc3ncccn3)n2)cc1"
Ans. ≤ 1 µM

---

- ASSAYED_SYSTEM: human GSK3β (Homo sapiens)
Catalogue of IC50 readings, one per entry.

COMPOUND	REPORTED
NC(=O)c1ccc(-c2ccnc(NCCc3ccc(F)cc3)n2)cc1	≤ 10 µM
Cc1cnc(CNc2nccc(-c3ccc(C(N)=O)cc3)n2)cn1	≤ 10 µM
N#Cc1ccc(-c2nc(NCCNc3ccc([N+](=O)[O-])cn3)nc(-c3ccc(F)cc3)c2C(=O)O)cc1	≤ 1 µM

Qu. Checklist item: IC50 tested on human GSK3β (Homo sapiens), entry "COc1ccc(CNc2nccc(-c3ccc(C(N)=O)cc3)n2)cc1" , value?
Ans. ≤ 10 µM

Qu. Checklist item: IC50 tested on human GSK3β (Homo sapiens), entry O=C(NCC1CCCO1)c1ccc(-c2ccnc(NCCNc3ccc([N+](=O)[O-])cn3)n2)cc1 (stereo not drawn) , value?
Ans. ≤ 10 µM

Qu. Checklist item: IC50 tested on human GSK3β (Homo sapiens), entry "NC(=O)c1ccc(-c2ccnc(NCc3cccc(Br)c3)n2)cc1" , value?
Ans. ≤ 10 µM

---

List of IC50 tested on human GSK3β (Homo sapiens).

COMPOUND	ASSAYED_SYSTEM	IC50
NC(=O)c1ccc(-c2ccnc(NCCc3cccc(Cl)c3)n2)cc1	human GSK3β (Homo sapiens)	≤ 10 µM

Kindly review the next compound as well.
Qu. Checklist item: IC50 tested on human GSK3β (Homo sapiens), entry "O=C(O)c1c(-c2ccc([N+](=O)[O-])cc2)nc(NCCNc2ccc([N+](=O)[O-])cn2)nc1-c1ccnc2ccccc12" , value?
Ans. ≤ 10 µM

---

List of IC50 tested on UniProt P49841.

O=[N+]([O-])c1ccc(NCCNc2nccc(NCc3ccc(Cl)cc3)n2)nc1 ≤ 10 µM
O=[N+]([O-])c1ccc(NCCNc2ncc(CN3CCOCC3)c(-c3ccc(Cl)cc3Cl)n2)nc1 ≤ 1 µM

Kindly review the next compound as well.
Qu. Value lookup for IC50; key = "NC(=O)c1ccc(-c2ccnc(NCc3cccc(-c4cccc(N)c4)c3)n2)cc1"
Ans. ≤ 10 µM

---

- ASSAYED_SYSTEM: human GSK3β (Homo sapiens)
- PROTOCOL_SUMMARY: Screening for GSK3 inhibitory activity using a cell-free assay
- Format: biochemical
- CONDITION_SET: read-out: IC50 with respect to GSK3
Catalogue of IC50 readings, one per entry.

Known IC50 results, listed for orientation:
COMPOUND	IC50
CN1CC(=O)N(c2cnc(NCCNc3ccc([N+](=O)[O-])c(N)n3)nc2-c2ccc(Cl)cc2Cl)C(=O)C1	≤ 1 µM
O=[N+]([O-])c1ccc(-c2ccnc(NCCNc3ccccn3)n2)cc1	≤ 10 µM

Qu. Value lookup for IC50; key = "Cc1cn(-c2cnc(NCCNc3ccc([N+](=O)[O-])cn3)nc2-c2ccc(Cl)cc2Cl)c(C)n1"
Ans. ≤ 1 µM

Qu. Value lookup for IC50; key = "NC(=O)c1ccc(-c2ccnc(NCc3ccc(-c4cccc(N)c4)cc3)n2)cc1"
Ans. ≤ 10 µM

Qu. Value lookup for IC50; key = "O=[N+]([O-])c1ccc(NCCNc2ncc(-n3cnc4ccccc43)c(-c3ccc(Cl)cc3Cl)n2)nc1"
Ans. ≤ 1 µM

Qu. Value lookup for IC50; key = "Nc1cnc(NCCNc2ccc([N+](=O)[O-])c(N)n2)nc1-c1ccc(Cl)cc1Cl"
Ans. ≤ 1 µM

Qu. Value lookup for IC50; key = "O=[N+]([O-])c1ccc(NCCNc2nccc(-c3ccc(-c4nc(Cl)c(Cl)[nH]4)cc3)n2)nc1"
Ans. ≤ 10 µM

---

- ASSAYED_SYSTEM: human GSK3β (Homo sapiens)
ASSAY_ENDPOINT: IC50

Known IC50 results, listed for orientation:
COMPOUND	IC50
O=C(O)c1c(-c2ccc([N+](=O)[O-])cc2)nc(NCCNc2ccc([N+](=O)[O-])cn2)nc1-c1cccc([N+](=O)[O-])c1	≤ 10 µM
CCOC(=O)c1cnc(NCCNc2ccc([N+](=O)[O-])cn2)nc1-c1cncc(Br)c1	≤ 10 µM
O=C(O)c1c(-c2ccc([N+](=O)[O-])cc2)nc(NCCNc2ccc([N+](=O)[O-])cn2)nc1-c1ccc([N+](=O)[O-])cc1	≤ 10 µM
Cc1nc(NCCNc2ccc([N+](=O)[O-])cn2)ncc1C(=O)NC(Cc1ccccc1)C(N)=O (centres unmarked)	≤ 10 µM
CCOC(=O)c1cnc(NCCNc2ccc([N+](=O)[O-])cn2)nc1NCc1cccc(Br)c1	≤ 10 µM

Qu. Value lookup for IC50; key = "O=C(NCc1cccc(Br)c1)c1ccc(-c2ccnc(NCCNc3ccc([N+](=O)[O-])cc3)n2)cc1"
Ans. ≤ 10 µM

Qu. Value lookup for IC50; key = "Nc1nc(NCCNc2ccc(-n3ccnc3)c(-c3ccc(Cl)cc3Cl)n2)ccc1[N+](=O)[O-]"
Ans. ≤ 1 µM

Qu. Value lookup for IC50; key = "CCOC(=O)c1cnc(NCCNc2ccc([N+](=O)[O-])c(NCc3ccccc3)n2)nc1-c1ccc(C#N)cc1"
Ans. ≤ 10 µM

Qu. Value lookup for IC50; key = "N#Cc1ccc(-c2nc(NCCNc3ccc([N+](=O)[O-])cn3)ncc2C(=O)NCc2ccncc2)cc1"
Ans. ≤ 1 µM

Qu. Value lookup for IC50; key = "CCOC(=O)c1cnc(NCCNc2ccc3ccccc3n2)nc1-c1ccc(C#N)cc1"
Ans. ≤ 10 µM

Qu. Value lookup for IC50; key = "COc1cccc(OC)c1CNc1nccc(-c2ccc(C(N)=O)cc2)n1"
Ans. ≤ 10 µM

Data origin: patent US7425557B2
